Please provide measured Wheat plant response rating (0 to 100 scale) for the entries that follow.
- Test system: wheat (Triticum aestivum)
- protocol details: Test A postemergence, visual plant response rating
- Assay type: in vivo
- test context: 500 g ai/ha, postemergence; 0 is no effect, 100 is complete control
Answers are plain numbers.

Some solved cases for reference:
{"smiles input": "CCCc1ccccc1/C(=N\\OC)c1c(O)c(C)nn(C)c1=O", "measurement": 0}
{"smiles input": "CCO/N=C(\\c1cccc(C)c1C)c1c(O)c(C)nn(C)c1=O", "measurement": 0}
{"smiles input": "CON=C(c1cccc(C(F)(F)F)c1)c1c(O)c(C)nn(C)c1=O", "measurement": 0}
{"smiles input": "CO/N=C(/c1cccc(C)c1C)c1c(O)c(C)nn(C)c1=O", "measurement": 0}

Hi there! I need Wheat plant response rating (0 to 100 scale) for each item below, if you can.
1. CO/N=C(/c1ccsc1C)c1c(O)c(C)nn(C)c1=O
2. CCO/N=C(/c1c(O)c(C)nn(C)c1=O)c1ccc(F)c2ccccc12
3. CO/N=C(/c1cccc(C)c1)c1c(O)c(C2CC2)nn(C)c1=O

## Output
[0, 50, 0]

Hi team, please reply with Wheat plant response rating (0 to 100 scale) for each item in this list.
1. CO/N=C(/c1cc(C)ccc1C)c1c(O)c(C)nn(C)c1=O
2. CO/N=C(\c1ccc(F)cc1C)c1c(O)c(C)nn(C)c1=O

## Output
[30, 20]

Sourced from patent US20210045385A1
